Numbers sourced from ChEMBL document CHEMBL5247601.

- protocol.description: Selectivity index, ratio of IC50 for cytotoxicity against human L02 cells to IC50 for antiproliferative activity against human HepG2 cells
- Format: toxicity, cell-based
- condition.set: read-out: Ratio IC50
selectivity ratio listing for selected compounds.
Give only the figure.

Illustrative cases are given below, each with its answer.
For CCOP(=O)(OCC)C(Nc1ccc(CCCC(=O)OCCOc2cc(/C=C\c3cc(OC)c(OC)c(OC)c3)ccc2OC)cc1)c1cccc(OC)c1 (stereo unspecified) , write its selectivity ratio.
8.21

Provide selectivity ratio value for the following compound: CCOP(=O)(OCC)C(Nc1ccc(CCCC(=O)OCCOc2cc(/C=C\c3cc(OC)c(OC)c(OC)c3)ccc2OC)cc1)c1ccc(C)cc1 (stereo unspecified)
9.76

Identify measured selectivity ratio corresponding to CCOP(=O)(OCC)C(Nc1ccc(CC(=O)OCCOc2cc(/C=C\c3cc(OC)c(OC)c(OC)c3)ccc2OC)cc1)c1cccc(Cl)c1 (stereo unspecified)
11.5

Consider the compound CCOP(=O)(OCC)C(Nc1ccc(CCCC(=O)OCCOc2cc(/C=C\c3cc(OC)c(OC)c(OC)c3)ccc2OC)cc1)c1cccc(Cl)c1 (stereo unspecified) and give its recorded selectivity ratio.
5.38

Please report the measured selectivity ratio for COc1ccc(/C=C\c2cc(OC)c(OC)c(OC)c2)cc1O [COMBRETASTATIN A4]
7.98

Consider the record given below.
// Input: CCOP(=O)(OCC)C(Nc1ccc(CC(=O)OCCOc2cc(/C=C\c3cc(OC)c(OC)c(OC)c3)ccc2OC)cc1)c1ccc(OC)cc1 (stereo unspecified) . Output its selectivity ratio only.
29
